These measurements were taken from ChEMBL document CHEMBL1134892.

pIC50: −log10 of the molar value.
# pIC50 per entry for Plasminogen activator inhibitor 1 (Homo sapiens)
measure: pIC50

Known pIC50 results, listed for orientation:
Which pIC50 value is on record for O=c1[nH]/c(=C\c2ccccn2)c(=O)[nH]/c1=C\c1ccc(OCCCc2cccnc2)cc1 ?
6.52

What would you report for O=C(Nc1ccc(/C=C2\NC(=O)c3ccccc3C2=O)cc1)c1cccs1 ?
5.40

Follow-up entry: Cn1c(=O)/c(=C/c2ccc(OCCCc3cccnc3)cc2)[nH]c(=O)/c1=C/c1ccccc1
4.92

a = O=c1[nH]c(-c2ccc(F)cc2)c(O)c2ccccc12
b = O=C(Nc1ccc(/C=C2\NC(=O)c3ccccc3C2=O)cc1)c1ccccc1
Hey, between a and b which has a smaller measured pIC50? Please reply using the label of the selected record.
a
